Tested on: Scirpus juncoides
protocol notes: Test Example 2: herbicidal effect test by treatment during growing period in paddy field
Assay type: in vivo
measurement parameters: treatment 7 days after sowing, 120 g/10a, evaluated 14 days after treatment

molecule	system tested	uom	weed suppression rate, Scirpus juncoides
Cc1cc(C)c(S(=O)(=O)n2cnn(C(=O)N(c3ccc(F)c(F)c3F)C(C)C)c2=O)c(C)c1	Scirpus juncoides	%	100
CC(C)N(C(=O)n1ncn(S(=O)(=O)C(C)C)c1=O)c1ccc(Cl)cn1	Scirpus juncoides	%	90
Cc1cc(F)ccc1N(C(=O)n1ncn(S(=O)(=O)C2CCCCC2)c1=O)C(C)C	Scirpus juncoides	%	80
CC(C)N(C(=O)n1ncn(S(=O)(=O)C2CC2)c1=O)c1ccc(Cl)cn1	Scirpus juncoides	%	90
CC(C)N(C(=O)n1ncn(S(=O)(=O)C2CCCCC2)c1=O)c1c(F)cccc1F	Scirpus juncoides	%	100
CC(C)N(C(=O)n1ncn(S(=O)(=O)C(C)C)c1=O)c1ccc(Cl)cc1F	Scirpus juncoides	%	100
CC(C)CN(C)S(=O)(=O)n1cnn(C(=O)N(c2ccc(F)cc2F)C(C)C)c1=O	Scirpus juncoides	%	90
CC(C)N(C(=O)n1ncn(S(=O)(=O)C(C)C)c1=O)c1ccc(F)cc1F	Scirpus juncoides	%	90
